Recorded Relative KD (fold vs VH0/VL0) by entry
- assay target: recombinant human GITR (Cat No. 13643-H08H, Lot No. LC12JA2509, Sino Biological) (human) (UniProt Q9Y5U5)
- assay method text: SPR Biacore 8K, single-cycle kinetics, IgG in supernatant captured on Protein A, GITR as analyte

Consider the binder anti-GITR 51B VH4/VL1 humanized antibody (human IgG1, kappa) (antibody, V domains shown) VH: QVQLVQSGAEVKKPGASVKVSCKTTGYRFTGYWINWVRQPPGKGLEWIGEILPGSGATYYSENFKGKVTITADTSTDTAYMELSSLRSEDTAIYYCARKGGYYAMDYWGQGTLVTVSS VL: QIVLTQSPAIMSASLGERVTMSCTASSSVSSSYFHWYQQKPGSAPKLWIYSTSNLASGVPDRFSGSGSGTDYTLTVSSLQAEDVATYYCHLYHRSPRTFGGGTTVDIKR and give its recorded Relative KD (fold vs VH0/VL0).
1.9

Specify reported Relative KD (fold vs VH0/VL0) for the binder shown: anti-GITR 51B VH3/VL4 humanized antibody (human IgG1, kappa) (antibody, V domains shown, also called VH3/Vk4; 51B VH3/Vk4) VH: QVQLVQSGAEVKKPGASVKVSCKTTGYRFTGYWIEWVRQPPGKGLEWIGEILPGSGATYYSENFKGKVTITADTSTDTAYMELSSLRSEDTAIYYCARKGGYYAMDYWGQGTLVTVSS VL: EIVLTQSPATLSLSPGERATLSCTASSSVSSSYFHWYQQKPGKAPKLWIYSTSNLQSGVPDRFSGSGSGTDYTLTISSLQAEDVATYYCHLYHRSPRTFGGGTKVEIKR
1.3

Provide measured Relative KD (fold vs VH0/VL0) value, entry: anti-GITR 51B VH0/VL0 chimeric antibody (human IgG1, kappa) (antibody, V domains shown, Chimeric antibody; also called VH0/Vk0; 51B VH0/Vk0) VH: QVQLQQSGAELMKPGASVKLSCKTTGYRFTGYWIEWVKQRPGHGLEWIGEILPGSGATYYSENFKGKATFTADTSSNTAYMQVSSLTTGDSAIYYCARKGGYYAMDYWGQGTSVTVSS VL: QIVLTQSPAIMSASLGERVTMTCTASSSVSSSYFHWYQQKPGSSPKLWIYSTSNLASGVPARFSGSGSGTSYSLTVSSLEAEDAATYYCHLYHRSPRTFGGGTTLDIKR
1
